These entries and their values trace back to ChEMBL document CHEMBL4038349.

- Tested on: Plasmodium falciparum
- EXPERIMENT: Antimalarial activity against chloroquine and pyrimethamine-resistant Plasmodium falciparum W2 infected in type O+ human RBC assessed as reduction in [3H]hypoxanthine incorporation preincubated for 48 hrs followed by [3H]hypoxanthine addition measured after 96 hrs
- Assay type: functional
OBSERVATION TYPE: IC50 (µM)
Could you give me the number in µM? Just the number is fine.

Study these solved cases before continuing.
[ask] Which IC50 is reported for this molecule? CCOC(=O)[C@H](Cc1ccccc1)NP(=O)(CCOCC(COCP(=O)(N[C@@H](Cc1ccccc1)C(=O)OCC)N[C@@H](Cc1ccccc1)C(=O)OCC)Cn1cnc2c(=O)[nH]cnc21)N[C@@H](Cc1ccccc1)C(=O)OCC (stereo not given in full)
[reply] 3.2

[ask] Which IC50 is reported for this molecule? CCOC(=O)[C@H](Cc1ccccc1)NP(=O)(CCOCC(COCP(=O)(N[C@@H](Cc1ccccc1)C(=O)OCC)N[C@@H](Cc1ccccc1)C(=O)OCC)Cn1cnc2c(=O)[nH]c(N)nc21)N[C@@H](Cc1ccccc1)C(=O)OCC (stereo not given in full)
[reply] 7.4

[ask] Which IC50 is reported for this molecule? CCOC(=O)[C@H](Cc1ccccc1)NP(=O)(CCOCC(COCP(=O)(N[C@@H](Cc1ccccc1)C(=O)OCC)N[C@@H](Cc1ccccc1)C(=O)OCC)Cn1c(Br)nc2c(=O)[nH]c(N)nc21)N[C@@H](Cc1ccccc1)C(=O)OCC (stereo not given in full)
[reply] 8.3

[ask] Which IC50 is reported for this molecule? CCOC(=O)[C@H](Cc1ccccc1)NP(=O)(CCOCC(Cn1cnc2c(=O)[nH]cnc21)OCCP(=O)(N[C@@H](Cc1ccccc1)C(=O)OCC)N[C@@H](Cc1ccccc1)C(=O)OCC)N[C@@H](Cc1ccccc1)C(=O)OCC (stereo not given in full)
[reply] 1.9

New cases:
[ask] Which IC50 is reported for this molecule? CCOC(=O)[C@H](Cc1ccccc1)NP(=O)(CCOCC(COCP(=O)(N[C@@H](Cc1ccccc1)C(=O)OCC)N[C@@H](Cc1ccccc1)C(=O)OCC)Cn1ccc2c(=O)[nH]c(N)nc21)N[C@@H](Cc1ccccc1)C(=O)OCC (stereo not given in full)
[reply] 6.5
